target: chymotrypsin-like proteasome activity (Homo sapiens, UniProt P28074); construct: chymotrypsin-like proteasome activity in intact THP1 cells after 1 h exposure; endogenous in cells; host or cells: THP1 (wild type); assay: Proteasome-Glo cell-based assay in intact THP1 cells; conditions: 1 h exposure, mean of 3 experiments ± S.D., read-out: IC50, inhibition of chymotrypsin-like proteasome activity
Assay metric: pIC50
// pIC50 is dimensionless: -log10 of concentration (M)

Challenge: Value lookup for pIC50; key = 4A6-dimer: dimer form of 4A6, contains the same amino acid sequence as 4A6 (THTXEG; The dimer linkage, and any protecti)
Response given: 6.31

The reported numbers originate from paper PMC6153520.
